Where do these numbers come from? They come from paper PMC3076504.

biological target: Isocitrate lyase (ICL) (Mycobacterium tuberculosis); assay: colorimetric glyoxylate-phenylhydrazone assay at […] nm, dose response; type: biochemical
Sequence (P9WKK7 whole entry): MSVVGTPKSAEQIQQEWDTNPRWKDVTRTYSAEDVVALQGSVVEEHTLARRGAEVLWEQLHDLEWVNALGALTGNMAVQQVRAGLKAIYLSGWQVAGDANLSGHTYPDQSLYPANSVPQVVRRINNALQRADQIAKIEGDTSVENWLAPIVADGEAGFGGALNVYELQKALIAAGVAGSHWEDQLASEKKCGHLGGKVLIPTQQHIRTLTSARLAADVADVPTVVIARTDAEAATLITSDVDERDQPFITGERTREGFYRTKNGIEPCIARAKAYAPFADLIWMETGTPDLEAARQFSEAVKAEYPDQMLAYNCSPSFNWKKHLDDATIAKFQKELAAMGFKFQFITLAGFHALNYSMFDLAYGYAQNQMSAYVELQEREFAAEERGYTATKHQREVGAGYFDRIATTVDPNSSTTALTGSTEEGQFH
measured-quantity: IC50

[Q] Determine its reported IC50: O=C(O)C(=O)O
[A] 13 mM
